Data origin: PubChem BioAssay (NCI)

assay: NCI Yeast Anticancer Drug Screen. Data for the sgs1 mgt1 strain (AID 161);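 further: 0% = growth of cultures given vehicle only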; details: S. cerevisiae sgs1 mgt1 strain, at 50.0 µM (retest, dose inferred, filed as 5.0), stronger effect = higher value
About 79,000 compounds went through this panel and 15% of them were active in at least one assay; those are over-represented in the sample as a whole.
Tag: 1 if measured growth inhibition is not below 90%, 0 if it is.

>>> label_class("[N-]=[N+]=NC1=CC(=O)c2cccc3cccc1c23")
1
>>> label_class("CSC(=S)/C(=C/Nc1ncccn1)c1ccccc1")
1
>>> label_class("OC1CC2CCC(C1)N2CCCN1c2ccccc2Sc2ccc(Cl)cc21 (configuration not stated)")
0
>>> label_class("Brc1ccc(CCNCCN2CCCCC2)cc1")
0
>>> label_class("COc1cc(C/C(=C/c2ccc(OC)c3occc23)[N+](=O)[O-])cc(OC)c1OC")
1
